Data provenance is paper PMC9482650.

ASSAY SYSTEM: FRMPD2_1, Q68DX3
Sequence (Q68DX3 770-861): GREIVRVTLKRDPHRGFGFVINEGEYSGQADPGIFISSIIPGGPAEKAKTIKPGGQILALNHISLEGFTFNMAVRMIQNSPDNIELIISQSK
EXPERIMENTAL PROTOCOL: holdup assay
Parameters: key: below the threshold = too weak to quantify, mostly under pKd 3.1 to 4
PROTOCOL CONDITIONS: plain residues with an end cap or a label only (N-terminal biotin on a linker: ado-ado)

>  <BINDER>
PGKKPEDSRV [SLCO2B1, O94956]

>  <pKd>
below the threshold

$$$$
>  <BINDER>
PAALPESTHM [SLC9A3, P48764]

>  <pKd>
below the threshold

$$$$
>  <BINDER>
DYSNLRETDI [ADRA1D, P25100]

>  <pKd>
below the threshold

$$$$
>  <BINDER>
DSEEELPTRL [GRK6, P43250]

>  <pKd>
below the threshold

$$$$
>  <BINDER>
VISSDDLTEL [CAPN6, Q9Y6Q1]

>  <pKd>
below the threshold

$$$$
>  <BINDER>
PLPPEEESWV [GAS2L2, Q8NHY3]

>  <pKd>
below the threshold

$$$$
>  <BINDER>
PKSNSSKEYV [CLDN7, O95471]

>  <pKd>
below the threshold

$$$$
>  <BINDER>
NTALVESEDL [PALLS, Q8WX93;Q8WX93-1]

>  <pKd>
below the threshold

$$$$
>  <BINDER>
PEKVSNTTVV [IGSF5, Q9NSI5]

>  <pKd>
below the threshold

$$$$
>  <BINDER>
THREVKFTSL [CD46, P15529]

>  <pKd>
below the threshold

$$$$
>  <BINDER>
KKTPVSRSHL [SLC22A3, O75751]

>  <pKd>
below the threshold

$$$$
>  <BINDER>
TNSKQGETTV [FZD1, Q9UP38]

>  <pKd>
3.79

$$$$
>  <BINDER>
FVFESRKEIL [TBPL1, P62380]

>  <pKd>
below the threshold

$$$$
>  <BINDER>
FHSIKQSTAV [CRHR1, P34998]

>  <pKd>
3.93

$$$$
>  <BINDER>
GVHSNDHSVV [LPAR1, Q92633]

>  <pKd>
below the threshold

$$$$
>  <BINDER>
VYEVPVETKF [SLC26A3, P40879]

>  <pKd>
below the threshold

$$$$
>  <BINDER>
PSDSVGKDVF [EGLN1, Q9GZT9]

>  <pKd>
below the threshold

$$$$
>  <BINDER>
EAVTVESTSL [SLC22A11, Q9NSA0]

>  <pKd>
below the threshold

$$$$
>  <BINDER>
EFKQTSSFLV [JAM1, Q9Y624]

>  <pKd>
3.75

$$$$
>  <BINDER>
QLGSPTADLA [SIPA1, Q96FS4]

>  <pKd>
below the threshold

$$$$
>  <BINDER>
AHGSTRDQSI [KCNB1, Q14721]

>  <pKd>
3.65

$$$$
>  <BINDER>
GSQSQVETEA [FKBP4, Q02790]

>  <pKd>
3.53

$$$$
>  <BINDER>
SAGADSETHC [SLCO1B1, Q9Y6L6]

>  <pKd>
below the threshold

$$$$
>  <BINDER>
PALKNGQYWV [CSPG4, Q6UVK1]

>  <pKd>
3.82

$$$$
>  <BINDER>
SKQFDKNAYV [CLDN10, P78369]

>  <pKd>
below the threshold

$$$$
>  <BINDER>
SGDGKTSVWI [GJC1, P36383]

>  <pKd>
3.71

$$$$
>  <BINDER>
NISARRFTLC [FAM167B, Q9BTA0]

>  <pKd>
4.1

$$$$
>  <BINDER>
QRYPGNQTTC [CCL24, O00175]

>  <pKd>
below the threshold

$$$$
>  <BINDER>
MQILSKPEFI [NPSR1, Q6W5P4]

>  <pKd>
below the threshold

$$$$
>  <BINDER>
EKPIDSETKM [SLC1A3, P43003]

>  <pKd>
below the threshold

$$$$
>  <BINDER>
STYCDYTIEI [FAM71C, Q8NEG0]

>  <pKd>
below the threshold

$$$$
>  <BINDER>
TFSRRPKTRV [CD226, Q15762]

>  <pKd>
3.73

$$$$
